Measured values drawn from patent US5223485A for this set.

# Target Or System: C5a Receptor (Homo sapiens)
# Construct: 2.5-25 μg/mL of purified PMNL membrane fragments
# Sequence (P21730 whole entry, the tested form may be a part): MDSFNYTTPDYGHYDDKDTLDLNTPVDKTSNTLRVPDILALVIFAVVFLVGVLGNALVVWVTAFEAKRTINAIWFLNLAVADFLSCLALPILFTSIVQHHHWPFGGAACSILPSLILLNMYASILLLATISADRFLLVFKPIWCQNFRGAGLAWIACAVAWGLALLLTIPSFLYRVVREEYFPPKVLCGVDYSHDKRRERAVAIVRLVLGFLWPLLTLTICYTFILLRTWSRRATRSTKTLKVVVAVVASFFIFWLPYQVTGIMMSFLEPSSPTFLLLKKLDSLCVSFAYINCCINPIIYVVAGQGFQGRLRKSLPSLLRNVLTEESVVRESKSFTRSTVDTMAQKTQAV
# Procedure Text: Anaphylatoxin receptor binding Ki determination: inhibition of 125I-C5a binding to PMNL membrane fragments
# Measurement Setup: 0.03-1 nM 125I-C5a, 2.5-25 μg/mL purified PMNL membrane fragments, filtration; read-out: In vitro C5a Receptor Binding Potency Ki
Bridge positions count the residues as written; N and C are the ends. Square brackets hold non-standard residues; d marks the D form. Peptide text beside a SMILES is read from it. * marks the point of attachment. Cha = N[C@@H](CC1CCCCC1)C(=O)O; dPen = CC(C)(S)[C@@H](N)C(=O)O; Bz = O=C(c1ccccc1)*; Ethyl(2-NH2) = NCC*; For = O=C*
Examples of compounds with documented Ki follow.
Lab book: enter the figure in µM, no units written.

Please review the entries below; each comes with its answer.
CC(C)C[C@H](NC(=O)[C@@H](Cc1ccccc1)NC(=O)[C@H](CC1CCCCC1)NC(=O)[C@H](C)NC(=O)[C@H](CCCCN)NC(=O)[C@@H](N)Cc1ccccc1)C(=O)N[C@H](C)C(=O)N[C@@H](CCCNC(=N)N)C(=O)O [Example 220] (H-FKA[Cha][dF]L[dA]R-OH) ... 0.22
CC(C)C[C@H](NC(=O)[C@H](C)NC(=O)[C@H](C)NC(=O)[C@H](CCCCN)NC(=O)[C@@H](N)Cc1ccccc1)C(=O)N[C@@H](C)C(=O)N[C@H](C)C(=O)N[C@@H](CCCNC(=N)N)C(=O)O [Example 295] (H-FKAALA[dA]R-OH) ... 3.3

### Prompt GET /values?readout=Ki&item= CC(C)C[C@H](NC(=O)[C@H](CC1CCCCC1)NC(=O)[C@H](CC1CCCCC1)NC(=O)[C@H](C)NC(=O)[C@H](CSCCN)NC(=O)[C@@H](N)Cc1ccccc1)C(=O)N[C@H](C)C(=O)N[C@@H](CCCNC(=N)N)C(=O)O [Example 348] (H-FC(Ethyl(2-NH2))A[Cha][Cha]L[dA]R-OH)
### Response 0.14

### Prompt Moving on to the next compound: CC(C)C[C@H](NC(=O)[C@H](CC1CCCCC1)NC(=O)[C@@H](NC(=O)[C@H](C)NC(=O)[C@H](CCCCN)NC(=O)[C@@H](N)Cc1ccccc1)[C@@H](C)O)C(=O)N[C@H](C)C(=O)N[C@@H](CCCNC(=N)N)C(=O)O [Example 182] (H-FKAT[Cha]L[dA]R-OH)
### Response 0.3

### Prompt What do you have for CC(=O)N[C@@H](Cc1ccccc1)C(=O)N[C@@H](CCCCN)C(=O)N[C@@H](C)C(=O)N[C@@H](CC1CCCCC1)C(=O)N[C@@H](C)C(=O)N[C@@H](CC(C)C)C(=O)N[C@H](C)C(=O)N[C@@H](Cc1ccc(O)cc1)C(=O)O [Example 305] (Ac-FKA[Cha]AL[dA]Y-OH) ?
### Response 0.17

### Prompt Request: CC(C)C[C@H](NC(=O)[C@H](CC1CCCCC1)NC(=O)[C@H](CC1CCCCC1)NC(=O)[C@H](C)NC(=O)[C@H](CCCCN)NC(=O)[C@@H](N)Cc1cn(C=O)c2ccccc12)C(=O)N[C@H](C)C(=O)N[C@@H](CCCNC(=N)N)C(=O)O [Example 338] (H-W(For)KA[Cha][Cha]L[dA]R-OH)
### Response 0.5

### Prompt Please answer likewise for CC(C)C[C@H](NC(=O)CNC(=O)[C@@H](Cc1ccccc1)NC(=O)[C@H](C)NC(=O)[C@H](CCCCN)NC(=O)[C@@H](N)Cc1ccccc1)C(=O)N[C@H](C)C(=O)N[C@@H](CCCNC(=N)N)C(=O)O [Example 282] (H-FKA[dF]GL[dA]R-OH)
### Response 0.029

### Prompt Would you mind doing CC(C)C[C@@H]1NC(=O)[C@H](CC2CCCCC2)NC(=O)[C@H](CC2CCCCC2)NC(=O)[C@H](C)NC(=O)[C@H](CCCCN)NC(=O)[C@H](NC(=O)c2ccccc2)C(C)(C)SSC[C@H](C(=O)N[C@@H](CCCNC(=N)N)C(=O)O)NC1=O [Example 279] (Bz-[dPen]KA[Cha][Cha]L[dC]R-OH; disulfide 1-7) as well?
### Response 4
